For each of the molecules below, state its GI50.
# Tested on: U-251
# PROTOCOL_SUMMARY: NCI tumour cell line growth inhibition, 48 h
The source made the active and inactive calls. Cut-off read from the data, not from the text of the source: active = GI50 up to about 1.1 µM and inactive = higher.

Field: example entries. Status: answers known.
COC(=O)[C@H](Cc1ccccc1)NC(=O)OCC1OC(n2cc(C)c(=O)[nH]c2=O)CC1N=[N+]=[N-] (some centres undefined)    > 100 µM (inactive)
Cn1c2c(c3ccccc31)C1CCCCCCC1C1C(=O)OC(=O)C21 (centres undefined)    37.9 µM (inactive)
CC1(C)N[PH]2(Nc3ccccc3O2)OC1=O    70.1 µM (inactive)
COP1(=O)Oc2ccccc2C(=O)C(C(F)(F)F)(C(F)(F)F)O1 (centres undefined)    > 100 µM (inactive)

Record GI50 for all entries; do not skip any.
1. C(=C1\CCC/C(=C/c2ccccc2)C1=NNc1ccccc1)/c1ccccc1
2. CN(C)c1n/c(=N/Cc2ccccn2)ss1
3. OCCN(CCO)c1ccc2c(c1)Cc1ccccc1-2
4. COc1nc(NC2OCC(OC(C)=O)C(OC(C)=O)C2OC(C)=O)c(/N=C(\C)C(C)=O)c(=O)n1C (centres undefined)

[out]
["> 100 µM (inactive)", "> 10 µM (inactive)", "49.3 µM (inactive)", "> 100 µM (inactive)"]

Provide reported GI50 for each item, in the same order as listed.
1. O=C1NC(=S)N/C1=C\c1cc2c(=O)c3ccccc3sc2s1
2. O=C1CNCCCN2CCN(CCCNCC(=O)Nc3ccc(cc3)S(=O)(=O)c3ccc(cc3)NC(=O)CNCCCN3CCN(CCCNCC(=O)Nc4ccc(cc4)S(=O)(=O)c4ccc(cc4)N1)CC3)CC2
3. Clc1ccc2sc(-n3ccc4ccccc43)nc2c1
4. COC(=O)C1=C(OC(=O)/C(=C/c2ccc(Cl)cc2)c2ccccc2)C(C(=O)OC)[C@@]2(O)[C@@H](C(=O)OC)[C@H](C)C[C@@H]1[C@@H]2C(=O)OC (some centres undefined)
5. Cc1ccc2nc3c(Cl)cc(=O)cc-3sc2c1

[out]
30.7 µM (inactive)
24.5 µM (inactive)
> 100 µM (inactive)
26.7 µM (inactive)
20.7 µM (inactive)

Hi! Can you tell me GI50 for each of these molecules?
1. COc1ccccc1NC(=S)N/N=C1\C(=O)Nc2ccccc21
2. Cc1onc(-c2c(F)cccc2Cl)c1C(=O)N[C@@H]1C(=O)N2[C@@H]1SC(C)(C)[C@@H]2C(=O)O
3. CC(=O)Nc1ccc(CNc2cc(=O)[nH]c(=O)[nH]2)cc1

[out]
1. > 100 µM (inactive)
2. > 100 µM (inactive)
3. > 100 µM (inactive)

###

# Test system: OVCAR-8
# PROTOCOL_SUMMARY: NCI tumour cell line growth inhibition, 48 h
Activity calls are given as the source filed them. No stated cut-off is given here; in the data, active = GI50 up to about 1.1 µM and inactive = higher.
Hi there, use one of these labels in your reply, thanks! active, inactive

Clc1cc2ncn(C3CCCO3)c2cc1Cl (stereo not given)    inactive
N#Cc1ccc(C(O)C(F)(F)c2nc3ccccc3o2)cc1 (stereo not given)    inactive

[in] Hey, what did the test say about N=c1n(CC(=O)NC23CC4CC(CC(C4)C2)C3)c2ccccc2n1CC(=O)NC12CC3CC(CC(C3)C1)C2 ?
[out] inactive

[in] // outcome(item) with item = O=C1c2cccc3cc([N+](=O)[O-])cc(c23)C(=O)N1CCCN1CCN(CCCNc2ccc3ncn4c5ccccc5c(=O)c2c34)CC1
[out] active

[in] // return assay outcome for COc1ccccc1/C=C\c1cnnc2ccccc12
[out] inactive

[in] Record lookup: outcome of this test for C=C1c2[nH]c3ccccc3c2C2C(CC)C1CCN2C (stereo not given) ?
[out] inactive

[in] Please indicate how the test categorized O=c1c(-c2ccccc2)c(SCCN2CCCC2)n(-c2ccccc2)c(=S)n1-c1ccccc1 .
[out] inactive

###

Please provide measured GI50 for the entries that follow.
# Test system: UO-31
# PROTOCOL_SUMMARY: NCI tumour cell line growth inhibition, 48 h
The source made the active and inactive calls. Rule as the data show it: active = GI50 up to about 1.1 µM and inactive = higher.

Example entries begin here.
Cc1ccc(N(C(=O)Nc2ccccc2)C2=NCC(C)S2)cc1C (centres undefined)    18.5 µM (inactive)
COC(=O)C(N)CCCC(N)C(=O)NC(C)C(=O)NC(CCC(=O)NCCNCCNc1c2ccccc2nc2cccc([N+](=O)[O-])c12)C(N)=O (centres undefined)    21.9 µM (inactive)
CN1C(=O)CC2(C)c3cc(C=O)ccc3N(C)C12 (centres undefined)    > 100 µM (inactive)
COC(=O)NCCc1n[nH]c2c1C(=O)C=C(Nc1ccccc1OC)C2=O    42.2 µM (inactive)
Cc1nc(C(N)=S)sc1C(=O)C/C(=N/N)C(=O)Nc1ccc(Cl)cc1    70.6 µM (inactive)
CC1(C)CC[C@]2(C(=O)O)CC[C@]3(C)C(=CC[C@@H]4[C@@]5(C)C[C@H](O)[C@H](O)[C@@](C)(C(=O)O)[C@@H]5CC[C@]43C)[C@@H]2C1    > 100 µM (inactive)
C=C1c2[nH]c3ccccc3c2C2C(CC)C1CCN2C (centres undefined)    > 100 µM (inactive)
O=C1CCCCCCCCCCC(=O)N2CCOCCOCCN1Cc1cccc(n1)C2    > 100 µM (inactive)

[in] Consider the compound shown here: O=P1(c2ccccc2)CCCCC1 What is its recorded GI50?
[out] > 100 µM (inactive)

###

# Test system: RXF 393
# PROTOCOL_SUMMARY: NCI tumour cell line growth inhibition, 48 h
Calls of active or inactive are those of the source. Rule as the data show it: active = GI50 up to about 1.1 µM and inactive = higher. Where a SMILES comes first, the peptide text is derived from it. [ ]: non-standard residue; d: D form. The star is where a group is joined. NMeF = CN[C@@H](Cc1ccccc1)C(=O)O; NMeV = CN[C@H](C(=O)O)C(C)C; Boc = CC(C)(C)OC(=O)*; OBn = c1ccc(CO*)cc1
I'd be grateful if you could share measured GI50 for these entries.

O/N=C1\SC(=N\O)/C(=N/O)S\C1=N/O    > 100 µM (inactive)
CC(=O)C(=N\Nc1ccc(Cl)cc1)/C(C)=N/c1ccc(C)cc1    23 µM (inactive)
CC(C)[C@@H](C(=O)N1CCC[C@H]1C(=O)OCc1ccccc1)N(C)C(=O)[C@H](C(C)C)N(C)C(=O)[C@H](Cc1ccccc1)N(C)C(=O)[C@H](NC(=O)OC(C)(C)C)C(C)C (Boc-[dV][NMeF][NMeV][NMeV]P-OBn)    > 50 µM (inactive)
C[N+](C)=c1[nH]c2ccccc2[nH]1    > 100 µM (inactive)
CCOC(=O)c1nnsc1NN    > 100 µM (inactive)
CCOC(=O)C(=Cc1ccc(Oc2ccccc2)cc1)C(=O)OCC    1.89 µM (inactive)
CN(CCS(=O)(=O)N1C(=O)C2CCCN2C(=O)[C@@H]1Cc1ccccc1)C(=O)OCc1ccccc1 (some centres undefined)    28.6 µM (inactive)
O=C(COc1ccc(Br)cc1Br)N1N=C(c2ccc([N+](=O)[O-])o2)CC1(O)c1ccccc1 (centres undefined)    2.53 µM (inactive)

Could you now consider this next compound?
[in] # GI50 lookup, item O=c1c2c([N+](=O)[O-])cccc2nc2[nH]c3ccccc3n12
[out] 13.8 µM (inactive)

###

# Test system: PC-3
# PROTOCOL_SUMMARY: NCI tumour cell line growth inhibition, 48 h
The source made the active and inactive calls. Rule as the data show it: active = GI50 up to about 1.1 µM and inactive = higher.
Exercise: for every item that follows, state its recorded GI50.

Guide cases for GI50, answers given:
COc1cc(/C=C/C(=O)OCCc2ccccc2)ccc1O    14.2 µM (inactive)
NCCN1C(=O)c2ccccc2C1(O)c1ccc(Cl)cc1 (stereo unspecified)    20.3 µM (inactive)

Quick one: give me GI50 for each item below, same order please.
1. COc1cccc(N(CN2CC=CC2=O)C(C)=O)c1
2. CO/N=C1\CC(NC(=O)CNC(=O)OC(C)(C)C)c2ccsc21 (stereo unspecified)
3. c1ccc(C2=C(c3ccccc3)P(c3ccccc3)C2)cc1 (stereo unspecified)

[out]
1. > 100 µM (inactive)
2. > 100 µM (inactive)
3. 48.1 µM (inactive)

Count: 8. Required value per item: GI50.
1. CC(=O)Nn1c(=S)[nH]c2ccccc21
2. Cn1cc(NC(=O)Nc2cc(C(=O)Nc3cc(C(=O)Nc4ccc(S(=O)(=O)O)c5cc(S(=O)(=O)O)ccc45)n(C)c3)n(C)c2)cc1C(=O)Nc1cc(C(=O)Nc2ccc(S(=O)(=O)O)c3cc(S(=O)(=O)O)ccc23)n(C)c1
3. O=C(/C(=C\I)c1ccccc1)c1ccccc1
4. NN(CC(=O)O)CC(=O)O
5. C=C(C)C#CC(O)(C(=O)OC1CCN(C)CC1)C(C)C (stereo unspecified)
6. CO/C(N)=C(C#N)/N=C/c1ccsc1
7. COc1cc(/C=C2\N=C(c3ccccc3)N(/N=C/c3cc4cc(C)ccc4nc3Cl)C2=O)ccc1O
8. COc1ccccc1N1C(=O)CSC1c1cccc(Oc2ccccc2)c1 (stereo unspecified)

[out]
> 100 µM (inactive)
> 100 µM (inactive)
2.71 µM (inactive)
> 100 µM (inactive)
> 100 µM (inactive)
81.1 µM (inactive)
20 µM (inactive)
17.6 µM (inactive)
